# PROTOCOL_NOTES: Liver microsomal stability, human
# Type: in vitro ADME
# EXPERIMENTAL_PARAMETERS: human liver microsomes, 1 μM (verapamil 0.5 μM)
MEASUREMENT_NAME: Clint (mL/min/g liver)

COc1cc(CCC(=O)/C=C/c2cccs2)ccc1O :: 6.85
COc1cc(CCC(=O)/C=C/c2cc(-c3ccccc3)cs2)ccc1O :: 5.09
CCc1ccc(/C=C/C(=O)CCc2ccc(O)c(OC)c2)s1 :: 6.27
CCCCC/C=C/C(=O)CCc1ccc(O)c(OC)c1 [6-shogaol, reference compound] :: 7.56
COc1cc(CCC(=O)/C=C/c2sccc2C)ccc1O :: 6.18
COc1cc(CCC(=O)/C=C/c2ccc(Br)s2)ccc1O :: 5.32
COc1cc(CCC(=O)/C=C/c2cc(Br)cs2)ccc1O :: 6.35
COc1cc(CCC(=O)/C=C/c2ccsc2)ccc1O :: 7.15
COc1cc(CCC(=O)/C=C/c2ccc([N+](=O)[O-])s2)ccc1O :: 6.95

###

# PROTOCOL_NOTES: Liver microsomal stability, rat
# Type: in vitro ADME
# EXPERIMENTAL_PARAMETERS: rat liver microsomes, 1 μM (verapamil 0.5 μM)
MEASUREMENT_NAME: half-life at 1 μM (min)

Observe how each entry below is paired with its result.
COc1cc(CCC(=O)/C=C/c2ccc(Br)s2)ccc1O :: 8.91
COc1cc(CCC(=O)/C=C/c2cccs2)ccc1O :: 7.69

[A] COc1cc(CCC(=O)/C=C/c2ccc([N+](=O)[O-])s2)ccc1O
[B] COc1cc(CCC(=O)/C=C/c2cc(-c3ccccc3)cs2)ccc1O
Enquiry: Hi there! Just curious which has the higher half-life at 1 μM between A and B . API: response body contains the label of the selected item.
Return: B

###

# PROTOCOL_NOTES: Vybrant MTT cytotoxicity assay in BV-2 cells together with LPSEc
# Assay type: cell-based
# EXPERIMENTAL_PARAMETERS: mouse, BV-2 microglial cells; BV-2 cells plus LPSEc 200 ng/mL, concentrations ≥ 2.5 μM; read-out: cell viability
# Method: The safe dose of the test compounds on murine hepatoma (Hepa1c1c-7) and mouse microglial cells (BV-2) was assessed by determining their cytotoxicity using Vybrant® MTT Cell Proliferation Assay Kit (Thermo Fisher Scientific, USA) following the manufacturer’s protocol. In the case of BV-2 cells, the cytotoxicity of the test compounds was assessed together with E. coli lipopolysaccharide (LPSEc), 200 ng/mL. […]
MEASUREMENT_NAME: viability at 24 h, 2.5 µM

Enquiry: GET /values?readout=viability at 24 h, 2.5 µM&item= `COc1cc(CCC(=O)/C=C/c2ccc([N+](=O)[O-])s2)ccc1O`
Return: < 90%

###

# PROTOCOL_NOTES: Vybrant MTT cytotoxicity assay in Hepa-1c1c7 cells
# Format: cell-based
# EXPERIMENTAL_PARAMETERS: mouse, Hepa-1c1c7 cells, 5 and 10 μM, read-out: cell viability
MEASUREMENT_NAME: viability at 24 h

Enquiry: GET /values?readout=viability at 24 h&item= CCCCC/C=C/C(=O)CCc1ccc(O)c(OC)c1 [6-shogaol, reference compound]
Return: < 90%

###

# PROTOCOL_NOTES: Liver microsomal stability, mouse
# Format: in vitro ADME
# EXPERIMENTAL_PARAMETERS: mouse liver microsomes, 1 μM (verapamil 0.5 μM)
MEASUREMENT_NAME: half-life at 1 μM (min)

Observe how each entry below is paired with its result.
COc1cc(CCC(=O)/C=C/c2cc(Br)cs2)ccc1O [STC4] :: 7.52
COc1cc(CCC(=O)/C=C/c2ccc(Br)s2)ccc1O [STC6] :: 10.1
COc1cc(CCC(=O)/C=C/c2cccs2)ccc1O [STC2] :: 6.84
COc1cc(CCC(=O)/C=C/c2ccsc2)ccc1O [STC1] :: 6.47

[1] CCc1ccc(/C=C/C(=O)CCc2ccc(O)c(OC)c2)s1 [STC7]
[2] COc1cc(CCC(=O)/C=C/c2ccc([N+](=O)[O-])s2)ccc1O [STC8]
Enquiry: Looking only at measured half-life at 1 μM, which entry is lower, 1 or 2 ? API: response body contains the label of the selected item.
Return: 2

[I] COc1cc(CCC(=O)/C=C/c2sccc2C)ccc1O [STC3]
[II] CCCCC/C=C/C(=O)CCc1ccc(O)c(OC)c1 [6-shogaol, reference compound]
Enquiry: Hi there! Just curious which has the higher half-life at 1 μM between I and II . API: response body contains the label of the selected item.
Return: I

###

# EXPERIMENTAL_TARGET: GSK-3β (Homo sapiens, UniProt P49841)
# Sequence (P49841 whole entry): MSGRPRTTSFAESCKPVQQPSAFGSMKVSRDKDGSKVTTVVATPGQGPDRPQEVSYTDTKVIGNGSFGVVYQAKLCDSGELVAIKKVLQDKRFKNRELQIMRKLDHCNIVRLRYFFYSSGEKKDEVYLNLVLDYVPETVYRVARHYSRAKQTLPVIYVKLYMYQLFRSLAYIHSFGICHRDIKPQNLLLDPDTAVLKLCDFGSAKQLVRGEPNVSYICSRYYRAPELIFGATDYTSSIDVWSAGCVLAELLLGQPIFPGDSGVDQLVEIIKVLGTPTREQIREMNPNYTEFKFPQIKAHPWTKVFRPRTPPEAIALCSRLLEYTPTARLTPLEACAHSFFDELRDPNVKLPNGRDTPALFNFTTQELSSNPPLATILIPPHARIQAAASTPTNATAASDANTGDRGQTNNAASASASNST
pIC50: −log10 of the molar value.
MEASUREMENT_NAME: pIC50

COc1cc(CCC(=O)/C=C/c2cc(Br)cs2)ccc1O [STC4] :: 6.89

[I] COc1cc(CCC(=O)/C=C/c2cc(-c3ccccc3)cs2)ccc1O [STC5]
[II] COc1cc(CCC(=O)/C=C/c2ccsc2)ccc1O [STC1]
[III] CCc1ccc(/C=C/C(=O)CCc2ccc(O)c(OC)c2)s1 [STC7]
Enquiry: Order the entries by their reported pIC50, beginning at the minimum. As an answer, provide the labels arranged in the order called for.
Return: II, III, I
(II: 6.38, III: 6.72, I: 7.30)

###

# PROTOCOL_NOTES: Liver microsomal stability, rat
# Type: in vitro ADME
# EXPERIMENTAL_PARAMETERS: rat liver microsomes, 1 μM (verapamil 0.5 μM)
MEASUREMENT_NAME: half-life at 1 μM (min)

CCc1ccc(/C=C/C(=O)CCc2ccc(O)c(OC)c2)s1 :: 8.54
COc1cc(CCC(=O)/C=C/c2ccsc2)ccc1O :: 6.85
CCCCC/C=C/C(=O)CCc1ccc(O)c(OC)c1 [6-shogaol, reference compound] :: 6.32
COc1cc(CCC(=O)/C=C/c2cc(Br)cs2)ccc1O :: 8.28
COc1cc(CCC(=O)/C=C/c2sccc2C)ccc1O :: 7.54

###

# PROTOCOL_NOTES: Vybrant MTT cytotoxicity assay in Hepa-1c1c7 cells
# Assay type: cell-based
# EXPERIMENTAL_PARAMETERS: mouse, Hepa-1c1c7 cells, 2.5, 5 and 10 μM, read-out: cell viability
MEASUREMENT_NAME: viability at 24 h

Enquiry: GET /values?readout=viability at 24 h&item= `COc1cc(CCC(=O)/C=C/c2ccc([N+](=O)[O-])s2)ccc1O`
Return: < 90%

###

# PROTOCOL_NOTES: Vybrant MTT cytotoxicity assay in BV-2 cells together with LPSEc
# Type: cell-based
# EXPERIMENTAL_PARAMETERS: mouse, BV-2 microglial cells; BV-2 cells plus LPSEc 200 ng/mL, concentrations ≥ 5 μM; read-out: cell viability
# Description: The safe dose of the test compounds on murine hepatoma (Hepa1c1c-7) and mouse microglial cells (BV-2) was assessed by determining their cytotoxicity using Vybrant® MTT Cell Proliferation Assay Kit (Thermo Fisher Scientific, USA) following the manufacturer’s protocol. In the case of BV-2 cells, the cytotoxicity of the test compounds was assessed together with E. coli lipopolysaccharide (LPSEc), 200 ng/mL. […]
MEASUREMENT_NAME: viability at 24 h, 5 µM

Enquiry: GET /values?readout=viability at 24 h, 5 µM&item= CCCCC/C=C/C(=O)CCc1ccc(O)c(OC)c1 [6-shogaol, reference compound]
Return: < 90%

###

# PROTOCOL_NOTES: Liver microsomal stability, mouse
# Assay type: in vitro ADME
# EXPERIMENTAL_PARAMETERS: mouse liver microsomes, 1 μM (verapamil 0.5 μM)
MEASUREMENT_NAME: Clint (mL/min/g liver)

Observe how each entry below is paired with its result.
CCc1ccc(/C=C/C(=O)CCc2ccc(O)c(OC)c2)s1 [STC7] :: 7.85
COc1cc(CCC(=O)/C=C/c2ccc([N+](=O)[O-])s2)ccc1O [STC8] :: 11.26
COc1cc(CCC(=O)/C=C/c2cccs2)ccc1O [STC2] :: 10.64
COc1cc(CCC(=O)/C=C/c2ccsc2)ccc1O [STC1] :: 11.24
COc1cc(CCC(=O)/C=C/c2cc(Br)cs2)ccc1O [STC4] :: 9.67

[a] COc1cc(CCC(=O)/C=C/c2sccc2C)ccc1O [STC3]
[b] CCCCC/C=C/C(=O)CCc1ccc(O)c(OC)c1 [6-shogaol, reference compound]
[c] COc1cc(CCC(=O)/C=C/c2cc(-c3ccccc3)cs2)ccc1O [STC5]
Enquiry: Order the entries by their reported Clint, beginning at the minimum. As an answer, provide the labels arranged in the order called for.
Return: c, a, b
(c: 6.42 mL/min/g liver, a: 9.27 mL/min/g liver, b: 14.32 mL/min/g liver)

###

# EXPERIMENTAL_TARGET: KEAP1-NRF2 interaction (Homo sapiens, UniProt Q14145)
# Sequence (Q14145 2-624 limits assumed): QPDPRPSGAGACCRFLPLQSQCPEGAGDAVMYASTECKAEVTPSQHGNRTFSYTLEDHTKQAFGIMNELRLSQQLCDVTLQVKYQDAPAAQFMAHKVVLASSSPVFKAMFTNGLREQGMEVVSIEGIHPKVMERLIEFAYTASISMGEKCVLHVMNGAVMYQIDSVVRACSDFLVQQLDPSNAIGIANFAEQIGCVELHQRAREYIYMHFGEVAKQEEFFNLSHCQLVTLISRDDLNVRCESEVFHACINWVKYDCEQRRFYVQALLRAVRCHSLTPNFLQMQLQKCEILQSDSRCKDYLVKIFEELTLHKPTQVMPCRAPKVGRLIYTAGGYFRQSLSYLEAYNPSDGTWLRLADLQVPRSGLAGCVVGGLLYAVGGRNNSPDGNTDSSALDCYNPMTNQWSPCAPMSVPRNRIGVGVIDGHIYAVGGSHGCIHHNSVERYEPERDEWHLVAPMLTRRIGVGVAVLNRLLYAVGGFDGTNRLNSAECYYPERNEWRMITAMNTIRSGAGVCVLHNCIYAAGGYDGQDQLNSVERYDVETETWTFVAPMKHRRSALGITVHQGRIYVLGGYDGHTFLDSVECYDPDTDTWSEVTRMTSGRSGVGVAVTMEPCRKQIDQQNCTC
# PROTOCOL_NOTES: KEAP1-Nrf2 inhibitor screening, fluorescence polarisation assay
# EXPERIMENTAL_PARAMETERS: KEAP1 Kelch domain, read-out: IC50, NRF2-KEAP1 inhibition
MEASUREMENT_NAME: IC50 (µM)

Observe how each entry below is paired with its result.
COc1cc(CCC(=O)/C=C/c2ccsc2)ccc1O [STC1] :: 0.86
COc1cc(CCC(=O)/C=C/c2cccs2)ccc1O [STC2] :: 0.63
COc1cc(CCC(=O)/C=C/c2cc(Br)cs2)ccc1O [STC4] :: 0.28

[1] COc1cc(CCC(=O)/C=C/c2ccc([N+](=O)[O-])s2)ccc1O [STC8]
[2] CCc1ccc(/C=C/C(=O)CCc2ccc(O)c(OC)c2)s1 [STC7]
[3] COc1cc(CCC(=O)/C=C/c2sccc2C)ccc1O [STC3]
[4] COc1cc(CCC(=O)/C=C/c2cc(-c3ccccc3)cs2)ccc1O [STC5]
Enquiry: Hey, quick one: sort these by IC50, largest value first please. As an answer, provide the labels arranged in the order called for.
Return: 1, 3, 2, 4

[a] CCCCC/C=C/C(=O)CCc1ccc(O)c(OC)c1 [6-shogaol, reference compound]
[b] COc1cc(CCC(=O)/C=C/c2ccc(Br)s2)ccc1O [STC6]
Enquiry: Hi there! Just curious which has the higher IC50 between a and b . API: response body contains the label of the selected item.
Return: a

The measured values listed here are drawn from paper PMC9951879.
